test: AUC in Sprague-Dawley rat serum at 2.5 mg/kg, iv administered as single dose by CE-UV analysis; type: ADME, organism-based; set-up: dose 2.5 mg/kg, route intravenous
Result type: AUC (µM·h)
Write it as a number; the unit µM·h goes unstated.

Before answering, review these 3 worked examples.
>  <Smiles structure>
CCN1C(=O)N[C@H]2[C@@H]3NC(=O)c4ccc(Cl)n4[C@@H]3C[C@]21O

>  <Result type>
AUC

>  <Endpoint value>
37.5

$$$$
>  <Smiles structure>
CN1C(=O)N[C@H]2[C@@H]3NC(=O)c4ccc(Cl)n4[C@@H]3C[C@]21O

>  <Result type>
AUC

>  <Endpoint value>
22.8

$$$$
>  <Smiles structure>
CCN1C(=O)N[C@H]2[C@@H]3NC(=O)c4cc(Cl)c(Cl)n4[C@@H]3C[C@]21O

>  <Result type>
AUC

>  <Endpoint value>
24.8

$$$$

Could you now look at the following compound, please?
INPUT: Form field: reported AUC of `CN1C(=O)N[C@H]2[C@@H]3NC(=O)c4ccc(Br)n4[C@@H]3C[C@]21O`
OUTPUT: 53.2
